test system: MALME-3M melanoma; experiment: NCI tumour cell line growth inhibition, 48 h
// values below are reported TGI

# compound, TGI
records = [
    ("Cc1nc2ccccc2n1COC(Cn1ccnc1)c1ccc(Cl)cc1Cl (stereo unspecified)", "> 100 µM"),
    ("CN1CCc2[nH]c3ccccc3c2C1", "> 100 µM"),
    ("CNS(=O)(=O)NN(C)S(=O)(=O)c1ccccc1", "> 100 µM"),
    ("CCOC(=O)C1=C(C)OC2(O)C=CC(O)=C3C(=O)N(c4ccccc4)C(=O)C312 (stereo unspecified)", "41.7 µM"),
    ("COc1ccc2c3c1O[C@]1(C)C34CCN(C)C(C2)C42C=C[C@@]1(OC)c1c(O)ccc(O)c12", "> 100 µM"),
    ("COc1ccc(Br)c(N/N=C2\\CCCNC2=O)c1", "> 100 µM"),
]
